protocol details: Volume of distribution at steady state in Sprague-Dawley rat at 10 mg/kg, po or […], iv
Format: ADME, organism-based
test context: in vivo, read-out: Vdss
readout label: Vd (L/kg)
Response body: numeric value in L/kg, unit text excluded.

Looking up Cc1cc(C)c(NC(=O)Nc2cc3ccccc3cc2C(=O)N[C@H](C(=O)O)[C@@H](C)OC(C)(C)C)c(C)c1 , I found its Vd recorded as 0.5

Looking up CCCC[C@H](NC(=O)c1cc2ccccc2cc1NC(=O)Nc1c(C)cc(C)cc1C)C(=O)O , I found its Vd recorded as 0.6

Looking up Cc1cc(C)c(NC(=O)Nc2cc3ccccc3cc2C(=O)N[C@@H](COC(C)(C)C)C(=O)O)c(C)c1 , I found its Vd recorded as 1.9
